experiment: Rat pharmacokinetics (oral bioavailability, clearance); format: in vivo; conditions: in vivo
Recorded clearance for the following compounds

{"compound": "CN1CCN(c2ccc(C(=O)N[C@H](C(=O)N3CC(Cl)[C@H]4OCC(=O)[C@H]43)C3CCCC3)cc2)CC1 (stereo in doubt)", "clearance": "107 mL/min/kg"}
{"compound": "CN1CCN(c2ccc(C(=O)N[C@H](C(=O)N3CC[C@H]4OCC(=O)[C@H]43)C3CCCC3)cc2)CC1", "clearance": "56 mL/min/kg"}
{"compound": "CC(C)C[C@H](NC(=O)c1ccc(N2CCN(C)CC2)cc1)C(=O)N1CC[C@H]2OCC(=O)[C@H]21", "clearance": "79 mL/min/kg"}
{"compound": "CN1CCN(c2ccc(C(=O)N[C@H](C(=O)N3CC(F)[C@H]4OCC(=O)[C@H]43)C3CCCCC3)cc2)CC1 (stereo in doubt)", "clearance": "25 mL/min/kg"}
{"compound": "CN1CCN(c2ccc(C(=O)N[C@H](C(=O)N3C[C@H](F)[C@H]4OCC(=O)[C@H]43)C3CCCC3)cc2)CC1", "clearance": "23 mL/min/kg"}
{"compound": "CC(C)C[C@H](NC(=O)c1ccc(N2CCN(C)CC2)cc1)C(=O)N1C[C@@H](F)[C@H]2OCC(=O)[C@H]21", "clearance": "81 mL/min/kg"}

---

experiment: Plasma incubations (rat plasma stability); format: in vitro ADME; conditions: 25 μM, 37° C., percent remaining at 1 hour
Recorded Rat Plasma Stability % rem. @ 1 h for the following molecules

{"molecule": "CN1CCN(c2ccc(C(=O)N[C@H](C(=O)N3CC(F)[C@H]4OCC(=O)[C@H]43)C3CCCCC3)cc2)CC1 (stereo in doubt) [Example 2]", "Rat Plasma Stability % rem. @ 1 h": "100%"}
{"molecule": "CN1CCN(c2nc(-c3ccc(C(=O)N[C@H](C(=O)N4C[C@@H](Cl)[C@H]5OCC(=O)[C@H]54)C4CCCC4)cc3)cs2)CC1 [Example 8]", "Rat Plasma Stability % rem. @ 1 h": "85.1%"}
{"molecule": "CC(C)C[C@H](NC(=O)c1ccc(N2CCN(C)CC2)cc1)C(=O)N1CC[C@H]2OCC(=O)[C@H]21 [prior art compound 42]", "Rat Plasma Stability % rem. @ 1 h": "84.2%"}
{"molecule": "CN1CCN(c2nc(-c3ccc(C(=O)N[C@H](C(=O)N4C[C@@H](F)[C@H]5OCC(=O)[C@H]54)C4CCCC4)cc3)cs2)CC1 [Example 7]", "Rat Plasma Stability % rem. @ 1 h": "88%"}
{"molecule": "CN1CCN(c2ccc(C(=O)N[C@H](C(=O)N3CC(Cl)[C@H]4OCC(=O)[C@H]43)C3CCCC3)cc2)CC1 (stereo in doubt) [Example 5]", "Rat Plasma Stability % rem. @ 1 h": "96.6%"}
{"molecule": "CN1CCN(c2ccc(C(=O)N[C@H](C(=O)N3CC[C@H]4OCC(=O)[C@H]43)C3CCCC3)cc2)CC1 [prior art compound 12]", "Rat Plasma Stability % rem. @ 1 h": "94.1%"}
{"molecule": "CN1CCN(c2ccc(C(=O)N[C@H](C(=O)N3C[C@H](F)[C@H]4OCC(=O)[C@H]43)C3CCCC3)cc2)CC1 [Example 1]", "Rat Plasma Stability % rem. @ 1 h": "95.9%"}
{"molecule": "CC(C)C[C@H](NC(=O)c1ccc(N2CCN(C)CC2)cc1)C(=O)N1C[C@@H](F)[C@H]2OCC(=O)[C@H]21 [prior art compound 10]", "Rat Plasma Stability % rem. @ 1 h": "94.2%"}
